Tested on: HCT116 MTAP null cells
Experiment: HCT116 MTAP null cell line proliferation (CellTiter-Glo cell viability, 6 days)
Type: cell-based
Details: HCT116-MTAP null, 144 h, HCT116 MTAP null cells, 6 days of treatment, CellTiter-Glo cell viability; read-out: HCT-116 MTAP null IC50
IC50 strictly less than 50 nM = Condition met. Otherwise Condition not met.

stdin: Consider Nc1nc2cnc(C(=O)N3CCC(F)(F)C[C@@H]3c3ccc(C(F)(F)F)cc3)cc2c2c1COC2 (single isomer, unassigned) . Does its IC50 lie strictly below 50 nM?
stdout: Condition not met

stdin: Consider C[C@H]1OCc2c1c(N)nc1cnc(C(=O)N3[C@@H](C)COC[C@H]3c3ccc(C(F)(F)F)nc3)cc21 (racemic) . Does its IC50 lie strictly below 50 nM?
stdout: Condition met

====

Tested on: HCT116 MTAP null cells
Experiment: HCT116 MTAP null cell line proliferation (CellTiter-Glo cell viability, 6 days)
Assay type: cell-based
Conditions: HCT116-MTAP null, 144 h, HCT116 MTAP null cells, 6 days of treatment, CellTiter-Glo cell viability; read-out: HCT-116 MTAP null IC50
value kind: pIC50
Answers are plain numbers, as −log10 of the molar value.

C[C@H]1OCc2c1c(N)nc1cnc(C(=O)N3CCOC[C@H]3c3ccc(C(F)(F)F)cn3)cc21 (racemic) [Example 357] ... 6.76
C[C@@H]1COC[C@H](c2ccc(C(F)(F)F)cc2)N1C(=O)c1ccc2nc(N)c3c(c2c1)COC3 [Example 527] ... 7.57
Cn1ncc2c3cc(C(=O)N4CCOC[C@@H]4c4ccc(S(F)(F)(F)(F)F)cc4)c(Cl)cc3nc(N)c21 [Example 419] ... 7.64
C[C@H]1OCc2c1c(N)nc1ccc(C(=O)N3[C@@H](C)COC[C@H]3c3ccc(C(F)(F)F)nc3)cc21 (racemic) [Example 305] ... 7.31
Cn1ncc2c(N)nc3cc(F)c(C(=O)N4CCOC[C@@H]4c4ccc(C(F)(F)F)cn4)cc3c21 [Example 558] ... 7.77

Can you give me pIC50 for all of these, one by one?
1. Nc1nc2cnc(C(=O)N3CCOCC3c3ccc(CC(F)(F)F)cc3)cc2c2c1COC2 (racemic) [Example 509]
2. C[C@H]1COC[C@@H](c2ccc(C(F)(F)F)nc2)N1C(=O)c1cc2c3c(c(N)nc2cc1Cl)COC3 (racemic) [Example 302]
3. Nc1nc2cc(F)c(C(=O)N3CC(c4ccc(C(F)(F)F)cn4)C3)cc2c2c1COC2 [Example 423]
4. Nc1nc2cc(Cl)c(C(=O)N3CCC(c4ccc(C(F)(F)F)cn4)C3)cc2c2c1COC2 (racemic) [Example 542]
5. C[C@@H]1COC[C@H](c2ccc(OC(F)F)nn2)N1C(=O)c1cc2c3c(c(N)nc2cn1)COC3 [Example 554]
6. C[C@H]1OCc2c1c(N)nc1ccc(C(=O)N3C[C@@H](c4ccc(F)cc4)[C@H](c4cc[nH]n4)C3)cc21 (racemic) [Example 434]

stdout:
[6.49, 7.96, 6.19, 6.63, 7.55, 6.33]

====

System: HCT116 MTAP null cells
Test: HCT116 MTAP null cell line proliferation (CellTiter-Glo cell viability, 6 days)
Type: cell-based
Details: HCT116-MTAP null, 144 h, HCT116 MTAP null cells, 6 days of treatment, CellTiter-Glo cell viability; read-out: HCT-116 MTAP null IC50
IC50 strictly less than 80 nM = TRUE. Otherwise FALSE.

Worked examples, 3 compounds total:
C[C@H]1OCc2c1c(N)nc1ccc(C(=O)N3CC(c4ccccc4)C4CCCC43)cc21 (some centres unmarked) ... FALSE
C[C@H]1OCc2c1c(N)nc1ccc(C(=O)N3CC(c4ccc(Cl)cc4)CC3C3CC3)cc21 (some centres unmarked) ... FALSE
Cn1ncc2c(N)nc3cc(Cl)c(C(=O)N4CC(O)(c5ccc(C(F)(F)F)cc5)C4)cc3c21 ... TRUE

stdin: Consider Nc1nc2cc(F)c(C(=O)N3CCC(c4ccc(C(F)(F)F)cn4)C3)cc2c2c1COC2 (racemic) . Does its IC50 lie strictly below 80 nM?
stdout: FALSE

stdin: Consider "C[C@H]1OCc2c1c(N)nc1ccc(C(=O)N3CCOC[C@@H]3c3ccc(S(F)(F)(F)(F)F)cc3)cc21" . Does its IC50 lie strictly below 80 nM?
stdout: TRUE

stdin: Consider Cn1ncc2c(N)nc3cc(F)c(C(=O)N4CC[C@@H](Cc5ccc(C(F)(F)F)cc5)C4)cc3c21 (single isomer, unassigned) . Does its IC50 lie strictly below 80 nM?
stdout: FALSE

stdin: Consider Nc1nc2ccc(C(=O)N3CCOC[C@@H]3c3cccc(Cl)c3)cc2c2c1COC2 (single isomer, unassigned) . Does its IC50 lie strictly below 80 nM?
stdout: FALSE

stdin: Consider Nc1nc2cc(Cl)c(C(=O)N3C[C@@H](c4ccc(F)cc4)[C@H](c4cc[nH]n4)C3)cc2c2c1COC2 (single isomer, unassigned) . Does its IC50 lie strictly below 80 nM?
stdout: TRUE

stdin: Consider CC1COC[C@H](c2ccc(C(F)(F)F)cn2)N1C(=O)c1ccc2nc(N)c3c(c2c1)COC3 (single isomer, unassigned) . Does its IC50 lie strictly below 80 nM?
stdout: TRUE

stdin: Consider C[C@H]1OCc2c1c(N)nc1ccc(C(=O)N3CCOC[C@@H]3c3ccc(OC(F)(F)F)cc3)cc21 (single isomer, unassigned) . Does its IC50 lie strictly below 80 nM?
stdout: TRUE

stdin: Consider "Cn1ncc2c(N)nc3cc(F)c(C(=O)N4C[C@@H](CO)[C@H](c5ccc(C(F)(F)F)cc5F)C4)cc3c21" . Does its IC50 lie strictly below 80 nM?
stdout: TRUE

stdin: Consider C[C@H]1COC[C@@H](c2ccc(C(F)(F)F)nc2)N1C(=O)c1cc2c3c(c(N)nc2cn1)COC3 (racemic) . Does its IC50 lie strictly below 80 nM?
stdout: TRUE

stdin: Consider "Cn1ncc2c(N)nc3ccc(C(=O)N4CC(c5ccc(C(F)(F)F)cc5)C4)cc3c21" . Does its IC50 lie strictly below 80 nM?
stdout: FALSE

====

System: HCT116 MTAP null cells
Assay: HCT116 MTAP null cell line proliferation (CellTiter-Glo cell viability, 6 days)
Assay type: cell-based
Details: HCT116-MTAP null, 144 h, HCT116 MTAP null cells, 6 days of treatment, CellTiter-Glo cell viability; read-out: HCT-116 MTAP null IC50
IC50 strictly less than 40 nM = y. Otherwise n.

Worked examples, 8 compounds total:
Nc1nc2ccc(C(=O)N3CCOC[C@@H]3c3ccc(C(F)(F)C(F)(F)F)cc3)cc2c2c1COC2 ... n
Nc1nc2ccc(C(=O)N3CCOCC3c3ccccc3Cl)cc2c2c1COC2 (racemic) ... n
CCOc1ccc(C2COCCN2C(=O)c2cc3c4c(c(N)nc3cc2Cl)COC4)nn1 (racemic) ... n
Cn1ncc2c3cc(C(=O)N4CCOC[C@@H]4c4ccc(OC(F)F)cn4)ccc3nc(N)c21 ... n
Cn1ncc2c(N)nc3cnc(C(=O)N4CCOC[C@@H]4c4ccc(S(F)(F)(F)(F)F)cc4)cc3c21 ... y
C[C@@H]1COC[C@H](c2ccc(C(F)(F)F)cn2)N1C(=O)c1cc2c(cc1F)nc(N)c1cnn(C)c12 ... y
CC1(C)CN(C(=O)c2cc3c4c(c(N)nc3cc2F)COC4)C[C@H]1c1ccc(Br)cc1 (single isomer, unassigned) ... y
C[C@@H]1OCc2c1c(N)nc1cnc(C(=O)N3[C@H](C)COC[C@@H]3c3ccc(OC(F)(F)F)cn3)cc21 (racemic) ... n

Now, please, on to the next compound.
stdin: Consider "Nc1nc2cnc(C(=O)N3CCOC[C@@H]3c3ccc(C(F)(F)F)cc3)cc2c2c1CCO2" . Does its IC50 lie strictly below 40 nM?
stdout: n

====

Tested on: HCT116 MTAP null cells
Assay: HCT116 MTAP null cell line proliferation (CellTiter-Glo cell viability, 6 days)
Format: cell-based
Settings: HCT116-MTAP null, 144 h, HCT116 MTAP null cells, 6 days of treatment, CellTiter-Glo cell viability; read-out: HCT-116 MTAP null IC50
value kind: pIC50
Give bare numbers, as −log10 of the molar value.

Can you give me pIC50 for all of these, one by one?
1. Cn1ncc2c(N)nc3cc(F)c(C(=O)N4CCOC[C@@H]4c4ccc(C(F)(F)C(F)(F)F)cc4)cc3c21 [Example 411]
2. Cn1ncc2c(N)nc3cc(Cl)c(C(=O)N4CC[C@H](c5ccc(C(F)(F)F)cc5)C4)cc3c21 [Example 443]
3. CC[C@@H]1CN(C(=O)c2ccc3nc(N)c4c(c3c2)CO[C@@H]4C)C[C@H]1c1ccc(C)cc1 (single isomer, unassigned) [Example 461]
4. C[C@H]1COC[C@@H](c2ccc(C(F)(F)F)cn2)N1C(=O)c1cc2c3c(c(N)nc2cn1)COC3 (racemic) [Example 339]
5. Nc1nc2cnc(C(=O)N3CCOC[C@@H]3c3ccc(CC(F)(F)F)cc3)cc2c2c1COC2 (single isomer, unassigned) [Example 604]

stdout:
1: 8.10; 2: 7.89; 3: 6.06; 4: 7.70; 5: 7.06

Can you give me pIC50 for all of these, one by one?
1. Nc1nc2cnc(C(=O)N3CCSC[C@@H]3c3ccc(C(F)(F)F)cc3)cc2c2c1COC2 (single isomer, unassigned) [Example 595]
2. Cn1ncc2c(N)nc3cc(F)c(C(=O)N4C[C@@H]5C[C@]5(c5ccc(C(F)(F)F)cc5)C4)cc3c21 (single isomer, unassigned) [Example 620]
3. CC(C)Oc1ccc([C@H]2COCCN2C(=O)c2cc3c4c(c(N)nc3cn2)COC4)cn1 (mixture of isomers) [Example 323]
4. Cn1ncc2c3cc(C(=O)N4CC[C@H](c5ccc(C(F)(F)F)cc5)C4)c(F)cc3nc(N)c21 [Example 437]
5. C[C@@H]1COC[C@H](c2ccc(OCCC(F)(F)F)nn2)N1C(=O)c1cc2c3c(c(N)nc2cc1F)[C@@H](C)OC3 [Example 565]
6. Cn1ncc2c(N)nc3cc(F)c(C(=O)N4CCOC[C@H]4c4ccc(C(F)(F)F)cn4)cc3c21 [Example 559]
7. Nc1nc2cnc(C(=O)N3CCCOC[C@@H]3c3ccc(C(F)(F)F)cc3)cc2c2c1COC2 (single isomer, unassigned) [Example 597]

stdout:
1: 6.86; 2: 6.20; 3: 6.40; 4: 6.03; 5: 8.22; 6: 6.24; 7: 6.06

Can you give me pIC50 for all of these, one by one?
1. Cn1ncc2c3cc(C(=O)N4CCOC[C@@H]4c4ccc(OC(F)F)nn4)c(F)cc3nc(N)c21 [Example 557]
2. C[C@@H]1COC[C@H](c2ccc(C(F)(F)F)cn2)N1C(=O)c1cc2c3c(c(N)nc2cn1)CCC3 [Example 515]
3. CCOc1ccc([C@@H]2COC[C@H](C)N2C(=O)c2cc3c4c(c(N)nc3cc2F)COC4)nn1 (racemic) [Example 327]
4. C[C@H]1COC[C@@H](c2ccc(Cl)nc2)N1C(=O)c1cc2c3c(c(N)nc2cn1)COC3 (racemic) [Example 311]

stdout:
6.16
7.33
7.37
6.83

Can you give me pIC50 for all of these, one by one?
1. C[C@@H]1COC[C@H](c2ccc(OC(F)(F)F)cc2)N1C(=O)c1ccc2nc(N)c3c(c2c1)CO[C@@H]3C [Example 536]
2. Nc1nc2cnc(C(=O)N3CCOC[C@@H]3c3ccc(OC(F)F)cn3)cc2c2c1COC2 [Example 516]
3. Nc1nc2cnc(C(=O)N3CCOC[C@@H]3c3cc(C(F)(F)F)cs3)cc2c2c1COC2 (single isomer, unassigned) [Example 615]
4. Nc1nc2ccc(C(=O)N3CCOCC3c3ccc(C(F)(F)F)nc3)cc2c2c1COC2 (racemic) [Example 513]

stdout:
[7.72, 6.68, 6.62, 6.42]

Can you give me pIC50 for all of these, one by one?
1. N#Cc1ccc([C@H]2COCCN2C(=O)c2ccc3nc(N)c4c(c3c2)COC4)nc1 (single isomer, unassigned) [Example 577]
2. Nc1nc2cc(Cl)c(C(=O)N3CCOC[C@@H]3c3ccc(S(F)(F)(F)(F)F)cc3)cc2c2c1COC2 [Example 418]

stdout:
[6.06, 8.00]
